IC50 by entry:
- SYSTEM: PI3Kβ (Homo sapiens, UniProt P42338)
- Construct: made in house
- Sequence (P42338 whole entry): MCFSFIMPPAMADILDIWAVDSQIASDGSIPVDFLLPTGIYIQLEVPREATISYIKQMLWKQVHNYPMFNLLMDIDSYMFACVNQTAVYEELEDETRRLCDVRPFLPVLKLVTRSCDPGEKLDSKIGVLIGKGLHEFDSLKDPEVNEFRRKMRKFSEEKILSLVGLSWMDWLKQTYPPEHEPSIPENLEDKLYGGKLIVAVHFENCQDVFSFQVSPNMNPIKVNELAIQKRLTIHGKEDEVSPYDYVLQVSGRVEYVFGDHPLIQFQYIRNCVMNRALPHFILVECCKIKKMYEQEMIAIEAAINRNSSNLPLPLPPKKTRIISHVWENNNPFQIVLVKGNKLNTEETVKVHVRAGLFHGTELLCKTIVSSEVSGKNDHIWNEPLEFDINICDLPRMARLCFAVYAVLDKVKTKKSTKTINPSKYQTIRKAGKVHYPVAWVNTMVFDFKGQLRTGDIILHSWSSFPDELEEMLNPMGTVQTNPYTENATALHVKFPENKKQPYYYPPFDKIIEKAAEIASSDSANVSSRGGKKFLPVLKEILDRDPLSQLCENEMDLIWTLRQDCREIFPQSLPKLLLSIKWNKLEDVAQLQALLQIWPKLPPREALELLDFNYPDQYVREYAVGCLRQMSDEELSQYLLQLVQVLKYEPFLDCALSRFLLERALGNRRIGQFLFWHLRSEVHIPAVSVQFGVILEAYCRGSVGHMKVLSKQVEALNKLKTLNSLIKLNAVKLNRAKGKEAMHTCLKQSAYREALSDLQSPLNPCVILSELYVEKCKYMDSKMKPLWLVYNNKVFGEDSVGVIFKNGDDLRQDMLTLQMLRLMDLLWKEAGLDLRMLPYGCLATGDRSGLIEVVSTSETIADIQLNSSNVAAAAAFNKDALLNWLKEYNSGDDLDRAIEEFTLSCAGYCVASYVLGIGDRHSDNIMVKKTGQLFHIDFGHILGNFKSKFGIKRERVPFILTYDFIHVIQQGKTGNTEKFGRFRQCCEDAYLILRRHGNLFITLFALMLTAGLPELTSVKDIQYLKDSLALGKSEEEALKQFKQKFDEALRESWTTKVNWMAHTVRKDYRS
- Sequence (P27986 whole entry partner): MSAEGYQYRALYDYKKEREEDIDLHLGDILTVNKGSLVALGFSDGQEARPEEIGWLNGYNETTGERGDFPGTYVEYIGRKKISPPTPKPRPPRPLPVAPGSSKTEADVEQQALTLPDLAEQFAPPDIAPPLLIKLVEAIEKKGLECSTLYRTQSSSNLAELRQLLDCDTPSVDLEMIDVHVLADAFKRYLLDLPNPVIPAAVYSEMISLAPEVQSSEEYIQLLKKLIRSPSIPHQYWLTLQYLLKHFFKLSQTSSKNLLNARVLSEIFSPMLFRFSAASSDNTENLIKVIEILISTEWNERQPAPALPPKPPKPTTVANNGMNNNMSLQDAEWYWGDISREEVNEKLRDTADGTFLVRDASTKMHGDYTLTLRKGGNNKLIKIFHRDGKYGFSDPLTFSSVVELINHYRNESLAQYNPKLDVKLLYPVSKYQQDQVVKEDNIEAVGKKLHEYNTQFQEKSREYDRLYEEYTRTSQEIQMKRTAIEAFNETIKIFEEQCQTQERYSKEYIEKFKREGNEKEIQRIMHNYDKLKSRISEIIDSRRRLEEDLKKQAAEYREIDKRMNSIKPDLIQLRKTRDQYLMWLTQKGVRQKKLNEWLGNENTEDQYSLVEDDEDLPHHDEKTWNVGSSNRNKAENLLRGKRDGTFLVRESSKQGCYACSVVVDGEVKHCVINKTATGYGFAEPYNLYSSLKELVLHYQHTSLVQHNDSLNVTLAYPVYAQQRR
- PROTOCOL: TR-FRET enzymatic activity assay, PI3Kβ
- Assay type: biochemical
- CONDITIONS_USED: Table 2a; same assay

{"columns": ["RECORD_SMILES", "IC50"],
 "data": [
  ["N#Cc1c(N[C@H](c2nc3c(Cl)cccc3c(=O)n2-c2cc[nH]n2)C2CC2)nc(N)nc1C(F)F", "19 nM"],
  ["C[C@H](Nc1nc(N)nc(N)c1Cl)c1nc2cccc(C(F)(F)F)c2c(=O)n1-c1cn[nH]c1", "83 nM"],
  ["C[C@H](Nc1nc(N)nc(N)c1Cl)c1nc2c(C(F)F)cc(F)cc2c(=O)n1-c1cc[nH]n1", "130 nM"],
  ["N#Cc1c(N)nc(N)nc1N[C@H](c1nc2cccc(C(F)(F)F)c2c(=O)n1-c1cc[nH]n1)C1CC1", "4 nM"],
  ["CCC[C@H](Nc1nc(N)nc(N)c1C#N)c1nc2cccc(Cl)c2c(=O)n1-c1c[nH]cn1", "3 nM"],
  ["Cc1c[nH]nc1-n1c([C@@H](Nc2nc(N)nc(N)c2C#N)C2CC2)nc2cccc(Cl)c2c1=O", "70 nM"],
  ["C[C@H](Nc1nc(N)nc(C(F)F)c1C#N)c1nc2c(Cl)cccc2c(=O)n1-c1cc[nH]n1", "9 nM"]
]}

* * *

Entries and their measured IC50 follow.
- SYSTEM: PI3Kγ (Homo sapiens, UniProt P48736)
- Construct: made in house
- Sequence (P48736 whole entry): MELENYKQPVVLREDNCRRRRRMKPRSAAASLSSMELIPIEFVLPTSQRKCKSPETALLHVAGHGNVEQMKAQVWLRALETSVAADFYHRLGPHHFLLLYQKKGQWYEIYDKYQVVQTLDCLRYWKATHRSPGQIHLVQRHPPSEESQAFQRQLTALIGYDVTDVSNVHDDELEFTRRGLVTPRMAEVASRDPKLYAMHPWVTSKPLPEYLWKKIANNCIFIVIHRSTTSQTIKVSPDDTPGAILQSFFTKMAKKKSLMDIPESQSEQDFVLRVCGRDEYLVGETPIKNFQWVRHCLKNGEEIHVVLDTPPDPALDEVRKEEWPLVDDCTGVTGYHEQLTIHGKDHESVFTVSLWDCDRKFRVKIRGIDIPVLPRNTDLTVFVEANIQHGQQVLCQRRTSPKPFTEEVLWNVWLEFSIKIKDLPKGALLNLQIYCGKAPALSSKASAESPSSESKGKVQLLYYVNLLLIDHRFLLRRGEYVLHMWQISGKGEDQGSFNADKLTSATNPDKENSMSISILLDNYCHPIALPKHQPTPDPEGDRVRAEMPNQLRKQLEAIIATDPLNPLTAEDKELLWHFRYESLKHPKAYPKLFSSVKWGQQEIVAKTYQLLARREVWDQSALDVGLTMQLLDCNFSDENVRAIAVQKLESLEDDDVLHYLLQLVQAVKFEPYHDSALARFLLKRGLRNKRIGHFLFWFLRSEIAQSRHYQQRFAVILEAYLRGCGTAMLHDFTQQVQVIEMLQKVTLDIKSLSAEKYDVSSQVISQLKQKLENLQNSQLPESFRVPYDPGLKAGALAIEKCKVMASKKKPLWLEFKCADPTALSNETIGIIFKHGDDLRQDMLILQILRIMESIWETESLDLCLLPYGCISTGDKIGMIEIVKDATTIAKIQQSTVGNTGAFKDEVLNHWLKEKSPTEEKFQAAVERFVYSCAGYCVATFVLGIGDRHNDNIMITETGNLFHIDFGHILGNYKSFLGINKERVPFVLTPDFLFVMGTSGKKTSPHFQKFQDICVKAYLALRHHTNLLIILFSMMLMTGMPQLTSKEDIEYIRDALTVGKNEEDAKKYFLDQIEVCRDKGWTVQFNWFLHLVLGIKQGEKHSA
- PROTOCOL: TR-FRET enzymatic activity assay, PI3Kγ
- Format: biochemical
- CONDITIONS_USED: Table 2; TR-FRET, 2x Km ATP, 30 minutes at 25° C.; read-out: PI3Kγ IC50

{"columns": ["RECORD_SMILES", "IC50, nM"],
 "data": [
  ["N#Cc1c(N)nc(N)nc1N[C@H](c1nc2c(Cl)cccc2c(=O)n1-c1cn[nH]c1)C1CC1", 440],
  ["N#Cc1c(N)nc(N)nc1N[C@H](c1nc2c(Cl)ccc(Cl)c2c(=O)n1-c1cc[nH]n1)C1CC1", 600],
  ["CC[C@H](Nc1nc(N)nc(C)c1C#N)c1nc2c(C#N)cccc2c(=O)n1-c1cc[nH]n1", 6300],
  ["CC[C@H](Nc1nc(N)nc(N)c1C#N)c1nc2cccc(Cl)c2c(=O)n1-c1cc[nH]n1", 330],
  ["CC[C@H](Nc1ncnc2ccc(Cl)nc12)c1nc2c(Cl)ccc(Cl)c2c(=O)n1-c1cn[nH]c1", 460],
  ["C[C@H](Nc1ncnc2ccoc12)c1nc2cccc(Cl)c2c(=O)n1-c1cc[nH]n1", 8100],
  ["C[C@H](NC(=O)c1nccnc1N)c1nc2cccc(Cl)c2c(=O)n1-c1cc[nH]n1", 890]
]}

* * *

- SYSTEM: PI3Kγ (Homo sapiens)
- Construct: made in house
- PROTOCOL: TR-FRET enzymatic activity assay, PI3Kγ
- Format: biochemical
- CONDITIONS_USED: read-out: PI3Kγ IC50
- Description: The compounds of formula (I) were characterized for their enzymatic activity against the PI3K isoforms. The activities were measured using a time-resolved fluorescence resonance energy transfer (TR-FRET) assay.
Below, each entry is listed with its recorded IC50.
OBSERVATION_TYPE: IC50

{"columns": ["RECORD_SMILES", "OBSERVATION_TYPE", "RECORDED_MEASUREMENT"],
 "data": [
  ["CC[C@H](Nc1ncnc2sccc12)c1nc2c(Cl)ccc(Cl)c2c(=O)n1-c1cn[nH]c1", "IC50", "> 10 µM"],
  ["CC[C@H](Nc1nc(N)nc(N)c1Cl)c1nc2c(F)ccc(Cl)c2c(=O)n1-c1cc[nH]n1", "IC50", "> 10 µM"],
  ["CC[C@H](NC(=O)c1cnn2cccnc12)c1nc2c(Cl)ccc(Cl)c2c(=O)n1-c1cc[nH]n1", "IC50", "> 10 µM"],
  ["CC[C@H](Nc1ncnn2ccnc12)c1nc2c(Cl)ccc(Cl)c2c(=O)n1-c1cc[nH]n1", "IC50", "> 10 µM"]
]}

The reported numbers originate from patent US10308639B2.
